Attribute: melting point
Use °C as the unit, but write only the number.

[
  {
    "molecule": "COc1cc(-c2cn([C@@H]3O[C@H](CO)C[C@H]3O)c3ncnc(N)c23)ccc1Cl [FH10649]",
    "melting point / °C": 208
  },
  {
    "molecule": "CCc1cn([C@@H]2O[C@H](CO)C[C@H]2O)c2ncnc(N)c12 [FH9613]",
    "melting point / °C": 200
  },
  {
    "molecule": "Nc1ncnc2c1c(Br)cn2[C@@H]1O[C@H](CSCCO)C[C@H]1O [FH9591]",
    "melting point / °C": 164
  },
  {
    "molecule": "Nc1ncnc2c1c(C(F)(F)F)cn2[C@@H]1O[C@H](CO)C[C@H]1O [FH9526]",
    "melting point / °C": 167
  },
  {
    "molecule": "Cc1cc(-c2cn([C@@H]3O[C@H](CO)C[C@H]3O)c3ncnc(N)c23)ccc1Cl [FH10648]",
    "melting point / °C": 125
  }
]

Request: Would you kindly share the measured melting point for C#Cc1cn([C@@H]2O[C@H](CO)C[C@H]2O)c2ncnc(N)c12 [FH8505] ?
Response: 192

Request: Would you kindly share the measured melting point for Nc1ncnc2c1c(/C=C/c1ccccc1)cn2[C@@H]1O[C@H](CO)C[C@H]1O [FH10660] ?
Response: 170
